All figures here come from patent US12509437B2.

Field: chromatographic logP. Provide a value for each of the compounds that follow.
test summary: LogP by HPLC on reversed phase columns (EEC directive 79/831 Annex V.A8)
Assay type: physicochemical
experimental conditions: reversed phase HPLC columns; method [a]
Description: [table] If more than one Log P value is available within the same method, all the values are given and separated by “+”. Calibration was done with straight-chain alkan2-ones (with 3 to 16 carbon atoms) with known Log P values (measurement of Log P values using retention times with linear interpolation between successive alkanones). Lambda-max-values were determined using UV-spectra from 200 nm to 400 nm and the peak values of the chromatographic signals.
Give the value as a plain number.

Challenge: Supply reported chromatographic logP belonging to this compound: COC(=O)CC[C@H](NC(=O)c1sc(Br)c(Br)c1C)C(=O)OC
Response given: 3.17

Challenge: Using known records, supply chromatographic logP for COC(=O)[C@H](CCCNC(=N)N)NC(=O)c1sc(Cl)c(Cl)c1C
Response given: 1.68

Challenge: Please give measured chromatographic logP of the following entry: COC(=O)[C@H](CCCNC(=N)N)NC(=O)c1sc(Br)c(Br)c1C
Response given: 1.74

Challenge: Consider the compound CCOC(=O)C(COC)NC(=O)c1sc(Cl)c(Cl)c1C (stereo not shown) . State its measured chromatographic logP.
Response given: 3.37

Challenge: Name the recorded chromatographic logP of the compound listed here: Cc1c(C(=O)NC(Cc2c[nH]c3ccccc23)C(=O)O)sc(Cl)c1Cl (stereo not shown)
Response given: 3.12

Challenge: Give chromatographic logP for COC(=O)CC[C@H](NC(=O)c1sc(Cl)c(Cl)c1C)C(=O)OC
Response given: 3.08

Challenge: Note chromatographic logP for the compound shown: CCOC(=O)CN(C)C(=O)c1sc(Br)c(Br)c1C
Response given: 3.23

---

test summary: LogP by HPLC on reversed phase columns (EEC directive 79/831 Annex V.A8)
Type: physicochemical
experimental conditions: method [a]: LC-UV, acidic range, 0.1% formic acid in water and acetonitrile as eluent
property: LogP

Challenge: Specify measured LogP for Cc1c(C(=O)NC2C(=O)SC2(C)C)sc(Br)c1Br (centres unmarked) [I.001] .
Response given: 3.99^[a]

Challenge: Quickly give me recorded LogP for Cc1c(C(=O)NC2CCCNC2=O)sc(Br)c1Br (centres unmarked) [I.022]
Response given: 2.10^[a]

Challenge: Provide only the value of recorded LogP for Cc1c(C(=O)NC2(C#N)CCC(C3CCCCC3)CC2)sc(Br)c1Br (centres unmarked) [I.151]
Response given: 6.06^[a]

Challenge: Give the value of LogP reported for the following: Cc1c(C(=O)NC2CCSC2=O)sc(Cl)c1Cl (centres unmarked) [I.037]
Response given: 2.86^[a]

Challenge: Quote LogP reported for Cc1c(C(=O)NC2CNC(=O)C2)sc(Br)c1Br (centres unmarked) [I.065] please.
Response given: 1.89^[a]

Challenge: Input Cc1c(C(=O)NC2CCCCNC2=O)sc(Cl)c1Cl (centres unmarked) [I.163] , output reported LogP.
Response given: 2.67^[a]

Challenge: Answer with reported LogP of Cc1c(C(=O)NC2CCOC2=O)sc(Br)c1Br (centres unmarked) [I.021]
Response given: 2.41^[a]

Challenge: Give LogP for COC(=O)[C@H](Cc1ccccc1)NC(=O)[C@H](CC(=O)O)NC(=O)c1sc(Br)c(Br)c1C [I.105]
Response given: 3.11^[a]

Challenge: State its LogP: Cc1c(C(=O)NC2CCSC2=O)sc(Br)c1Br (centres unmarked) [I.002]
Response given: 3.04^[a]

Challenge: Give LogP for COC(=O)[C@H](Cc1ccccc1)NC(=O)[C@H](CC(=O)O)NC(=O)c1sc(Cl)c(Cl)c1C [I.048]
Response given: 3.09^[a]

Challenge: Indicate the recorded LogP value for this compound: Cc1c(C(=O)NC2CCNC(=O)C2)sc(Br)c1Br (centres unmarked) [I.066]
Response given: 1.93^[a]

Challenge: Quickly give me recorded LogP for Cc1c(C(=O)NC2(C#N)CCC(c3ccccc3)CC2)sc(Br)c1Br (centres unmarked) [I.170]
Response given: 4.78^[a]

Challenge: Supply recorded LogP for Cc1c(C(=O)N[C@H]2CCCNC2=O)sc(Cl)c1Cl [I.162] here.
Response given: 2.12^[a]

Challenge: Please give measured LogP of the following entry: Cc1c(C(=O)NC2CCNC2=O)sc(Br)c1Br (centres unmarked) [I.064]
Response given: 1.93^[a]

Challenge: # return recorded LogP for entry Cc1c(C(=O)N[C@H]2CCOC2=O)sc(Cl)c1Cl [I.167]
Response given: 2.34^[a]

Challenge: Respond only with LogP recorded for Cc1c(C(=O)NC2CCOC2=O)sc(Cl)c1Cl (centres unmarked) [I.147]
Response given: 2.40^[a]

Challenge: In one line, give reported LogP of the entry Cc1c(C(=O)N[C@H]2CCSC2=O)sc(Br)c1Br [I.010] .
Response given: 3.04^[a]
